Protocol Summary: yeast display, Sf9 membrane polyspecificity reagent, FACS + sequencing; frameworks hold sequencing errors

Sequence Text	polyreactivity (PSR sort gate)
QVQLVESGGVLVQAGGSLRLSCAASGSILSNYAMGWYRQAPGKERELVASISSTAGSTYYADSVKGRFTISRDNCKNTVYLQMNSLKPEDTAVYYSIKVFGGGTYDFWGQGTQVTVSS	low polyreactivity
QVQLVESGGGLVQAGCSLRLSCAASGFTFYYNAMGWYRQAPGKERDLVAAISISGASTYYADSVKGRFTISRDNAKNTVYLQMNSLKPEDTAVFYCAKRTKGYTYHHEYGYWGQGTQVTVSS	low polyreactivity

----------
Protocol Summary: yeast display, Sf9 membrane polyspecificity reagent, FACS + sequencing; frameworks hold sequencing errors
Measure: polyreactivity (PSR sort gate)

Answered examples (5):
Sequence Text	Result
QVQLVESGGGLVQEGGSLCLSCAASGINFYYYTMGWYRQATGKERELVDAISGDDTHYADSVKGRFTISGDNAKKTVYLLMNSLKADHTAVYYCAAGYIYWDTVQSVYEYGYCGQGTQVTVSS	low polyreactivity
QVQLVESGGGLVQAGGSLRLSCAPSGITFRSYAMGWYRQAPGKERELVATISWSGGITYYADSVKGRFTISRDNAKNTVYLQMNSLKPEDTAVYYCATASQSWGRDDYYYWGQGTQVTVSS	low polyreactivity
QVQLVESGGGLVQAGGSLRLSCAASGITFYPYTLGWYRQAPGKERELVASISTSGTNYADSVKGRFTISRDNAKNTVYLQMNSLKPEDTAVYYCAADIWSYYRSTHVDSWGQGTQVTVSS	low polyreactivity
QVQLVESGGGLVQAGGSLRLSCAPSGFIFDYNAMGWYRQAPGKERELVAAISISGGGTYYADSVKGRFTISRDNAKNTVYLQMNSLKPEDTAVYYCATAGRYDAYDYWGQGTQVTVSS	low polyreactivity
QVQLVESGGGLVQAGGSLRLSCAASGSTFGYNDMGWYRQAPGKERELVAAIDTGVSTNYADSVKGRFTISRDNAKNTVYLQMNSLKPEDTAVYYCAKSGSAYWHSGWSVGFDYWGQGTQVTVSS	low polyreactivity

Ask: Tell us which polyreactivity (PSR sort gate) value is on record for `QVQLVESGGGLVQAGGSLRLSCAASGSIFTYYTMAWYRQAPGTERELVAAINGRGHSTYYADSVKGRFTISRDNAKNTVYLQMKSLKSEDTAVYYCKALGSLDGRYGYWGQGTQVTVSS`
Result: high polyreactivity

Ask: Tell us which polyreactivity (PSR sort gate) value is on record for `QVQLVESGGGLVQAGGSLRLSCAASGTTFRANAMGWYRQAPAKERELVAAITSGGSTNYADSVKGRFTISRDNAKNTVYLQMNSLKPEDTAVYYCAKETYYGTDNFGQVGGEMDYWGQGNQVTVSS`
Result: low polyreactivity

Ask: Tell us which polyreactivity (PSR sort gate) value is on record for `QVQLVDSGGGLVQAGATLRLSGAASGRIFGCNAMGWYRQAPGKVRELVAAISNGGSTYYADSVKGRFTISRDNAKNTVYFQMNSLKPEDTAVYYCNAAARIGYARRFYYWGQGTQVTVSS`
Result: high polyreactivity

Ask: Tell us which polyreactivity (PSR sort gate) value is on record for `QVQLVESGGGLVQAGGSLRLSCAASGSTFVKNVMGWYRQAPGKERELVAGITRGGSTYYADSVKGRFTISRDNAKNTVYLQMNSLKPEDTAVYYCAAARWSQYRTWMNYWGQGTQVTVSS`
Result: high polyreactivity

Ask: Tell us which polyreactivity (PSR sort gate) value is on record for `QVQLVESGGGLVQAGGSLRLSCAASGRIFGPYAMGWYRPAPGKERELVAVISLSGGRTYYADSVKGRFTISRDNAKNTVYLQMNSLKPEDTAVYYCAAARIYVGRRFDFWGQGTQVTVSS`
Result: high polyreactivity

Ask: Tell us which polyreactivity (PSR sort gate) value is on record for `QVQLVESGGCLVQAGGSLRLSCAASGSTFVHNAMGWYRQAPGKERELVAAISESGGGTYYADSVKGRFTISRDNAKNTVYLQMNSLKPEDTAVYYCAAPPAGENWRDGGGYWGQGTQVTVSS`
Result: low polyreactivity

Recorded values, source the nanobody polyreactivity screen of Harvey et al. (2022).
